Test: Caco-2 membrane permeability evaluation (improved method, 20-24 h pre-incubation, 96-well)
Format: in vitro ADME
Settings: human, commercially available middle molecular weight compounds
Measurement Kind: Papp at 180 min (×10⁻⁶ cm/s)

// recorded Papp at 180 min for CC[C@H]1OC(=O)[C@H](C)[C@@H](O[C@H]2C[C@@](C)(OC)[C@@H](O)[C@H](C)O2)[C@H](C)[C@@H](O[C@@H]2O[C@H](C)C[C@H](N(C)C)[C@H]2O)[C@](C)(O)C[C@@H](C)CN(C)[C@H](C)[C@@H](O)[C@]1(C)O : 0.515

A = C[C@H]1O[C@@H](O[C@H]2[C@@H](O)C[C@H](O[C@H]3[C@@H](O)C[C@H](O[C@H]4CC[C@@]5(C)[C@H](CC[C@@H]6[C@@H]5C[C@@H](O)[C@]5(C)[C@@H](C7=CC(=O)OC7)CC[C@]65O)C4)O[C@@H]3C)O[C@@H]2C)C[C@H](O)[C@@H]1O
B = CC[C@H]1OC(=O)[C@H](C)[C@@H](O[C@H]2C[C@@](C)(OC)[C@@H](O)[C@H](C)O2)[C@H](C)[C@@H](O[C@@H]2O[C@H](C)C[C@H](N(C)C)[C@H]2O)[C@](C)(O)C[C@@H](C)C(=O)[C@H](C)[C@@H](O)[C@]1(C)O
I'm curious whether A or B has the smaller Papp at 180 min number. Which is it? Answer format: the label of the selected item.
A

P = CO[C@H]1/C=C/O[C@@]2(C)Oc3c(C)c(O)c4c(c3C2=O)C2=NC3(CCN(CC(C)C)CC3)NC2=C(NC(=O)/C(C)=C\C=C\[C@H](C)[C@H](O)[C@@H](C)[C@@H](O)[C@@H](C)[C@H](OC(C)=O)[C@@H]1C)C4=O
Q = CC(=O)O[C@H]1C(=O)[C@@]2(C)[C@H]([C@H](OC(=O)c3ccccc3)[C@]3(O)C[C@H](OC(=O)[C@H](O)[C@@H](NC(=O)c4ccccc4)c4ccccc4)C(C)=C1C3(C)C)[C@]1(OC(C)=O)CO[C@@H]1C[C@@H]2O
For this pair, P and Q , which shows a numerically higher Papp at 180 min? Mark your selection by writing its label.
P

1 = CCC(C)n1ncn(-c2ccc(N3CCN(c4ccc(OCC5COC(Cn6cncn6)(c6ccc(Cl)cc6Cl)O5)cc4)CC3)cc2)c1=O (centres unmarked)
2 = CC[C@H]1OC(=O)[C@H](C)[C@@H](O[C@H]2C[C@@](C)(OC)[C@@H](O)[C@H](C)O2)[C@H](C)[C@@H](O[C@@H]2O[C@H](C)C[C@H](N(C)C)[C@H]2O)[C@](C)(O)C[C@@H](C)/C(=N\OCOCCOC)[C@H](C)[C@@H](O)[C@]1(C)O
Which has the higher Papp at 180 min, 1 or 2 ? API: response body contains the label of the selected item.
1

====

Experiment: Log D (pH 7.4) measurement, n-octanol/buffer
Conditions: n-octanol/pH 7.4 buffer
Measurement Kind: logD

Value of measured logD for the entry CCC(C)n1ncn(-c2ccc(N3CCN(c4ccc(OCC5COC(Cn6cncn6)(c6ccc(Cl)cc6Cl)O5)cc4)CC3)cc2)c1=O (stereo not shown) : 4.29

For reference, reported logD for CC[C@H]1OC(=O)[C@H](C)[C@@H](O[C@H]2C[C@@](C)(OC)[C@@H](O)[C@H](C)O2)[C@H](C)[C@@H](O[C@@H]2O[C@H](C)C[C@H](N(C)C)[C@H]2O)[C@](C)(O)C[C@@H](C)CN(C)[C@H](C)[C@@H](O)[C@]1(C)O stands at 0.62

Field logD (entry CO[C@H]1/C=C/O[C@@]2(C)Oc3c(C)c(O)c4c(c3C2=O)C2=NC3(CCN(CC(C)C)CC3)NC2=C(NC(=O)/C(C)=C\C=C\[C@H](C)[C@H](O)[C@@H](C)[C@@H](O)[C@@H](C)[C@H](OC(C)=O)[C@@H]1C)C4=O ) reads 3.88

# compound CC[C@H]1OC(=O)[C@H](C)C(=O)[C@H](C)[C@@H](O[C@@H]2O[C@H](C)C[C@H](N(C)C)[C@H]2O)[C@](C)(OC)C[C@@H](C)C(=O)[C@H](C)[C@H]2N(CCCCn3cnc(-c4cccnc4)c3)C(=O)O[C@]12C ; its logD = 2.1

Data point: CC[C@H]1OC(=O)[C@H](C)[C@@H](O[C@H]2C[C@@](C)(OC)[C@@H](O)[C@H](C)O2)[C@H](C)[C@@H](O[C@@H]2O[C@H](C)C[C@H](N(C)C)[C@H]2O)[C@](C)(O)C[C@@H](C)/C(=N\OCOCCOC)[C@H](C)[C@@H](O)[C@]1(C)O ; logD = 2.04

a = CO[C@H]1C[C@@H]2CC[C@@H](C)[C@@](O)(O2)C(=O)C(=O)N2CCCC[C@H]2C(=O)O[C@H]([C@H](C)C[C@@H]2CC[C@@H](O)[C@H](OC)C2)CC(=O)[C@H](C)/C=C(\C)[C@@H](O)[C@@H](OC)C(=O)[C@H](C)C[C@H](C)/C=C/C=C/C=C/1C
b = CC[C@H]1OC(=O)[C@H](C)[C@@H](O[C@H]2C[C@@](C)(OC)[C@@H](O)[C@H](C)O2)[C@H](C)[C@@H](O[C@@H]2O[C@H](C)C[C@H](N(C)C)[C@H]2O)[C@](C)(O)C[C@@H](C)C(=O)[C@H](C)[C@@H](O)[C@]1(C)O
Dear colleague, could you let me know whether a or b has the lower recorded logD? Thanks. Give the label of your selection.
b
